system under test: Pin1 (Example 6, construct not stated) (human) (UniProt Q13526)
test description: fluorescence anisotropy
Starred links: 1 amine or outer side, 2 acyl side, 3 side chain; linkers in the order of their positions; H or OH if unused. Non-standard residues stand in square brackets, D forms with d. Primed or numbered codes have the meaning given here. No end group written: not given here. Trimesoyl = O=C(c1cc(C(=O)[*:2])cc(C(=O)[*:3])c1)[*:1]; Phe(3,4-F2) = N[C@@H](Cc1ccc(F)c(F)c1)C(=O)O; Phe(4-F) = N[C@@H](Cc1ccc(F)cc1)C(=O)O; 2Nal = N[C@@H](Cc1ccc2ccccc2c1)C(=O)O; Pip′ = L-homoproline (pipecolyl); D‑4‑Phe = not defined here; Dap = NC[C@H](N)C(=O)O; Sar = CNCC(=O)O
Threshold 500 nM. Kd below it: True. Kd at it or above: False.

Worked examples, 5 binders total:
1. Trimesoyl-P[Sar][dD][Pip′][2Nal]R[Dap]F[2Nal]RRRR[Dap]K-NH2 (linker (positions not given here) via Trimesoyl; not fully specified (some residues, bridges); printed as bicyclo[Tm-(Pro-Sar-D-Asp-Pip-Nal-Arg)-Dap-(Phe-Nal-Arg-Arg-Arg-Arg-Dap)]-Lys) [peptide 10 (Table 18)]; False
2. Trimesoyl-[dF][Phe(4-F)][dT][Pip′][2Nal]R[Dap]F[2Nal]RRRR[Dap]K-NH2 (linker (positions not given here) via Trimesoyl; not fully specified (some residues, bridges); printed as bicyclo[Tm-(D-Phe-Fpa-D-Thr-Pip-Nal-Arg)-Dap-(Phe-Nal-Arg-Arg-Arg-Arg-Dap)]-Lys) [peptide 12 (Table 18)]; False
3. Trimesoyl-[D‑3‑Fpa][Phe(4-F)][dT][Pip′][2Nal]RA[dF][Dap]F[2Nal]RRRR[Dap]K (linker (positions not given here) via Trimesoyl; not fully specified (C-terminus, bridges); printed as bicyclo[Tm-(D-3-Fpa-Fpa-D-Thr-Pip-Nal-Arg-Ala-D-Phe)-Dap-(Phe-Nal-Arg-Arg-Arg-Arg-Dap)]-Lys) [peptide 36 (Table 18)]; True
4. Trimesoyl-[dF][Phe(4-F)][dT][Pip′][2Nal]RA[dF][Dap]R[2Nal]RFRR[Dap]K (linker (positions not given here) via Trimesoyl; not fully specified (C-terminus, bridges); printed as bicyclo[Tm-(D-Phe-Fpa-D-Thr-Pip-Nal-Arg-Ala-D-Phe)-Dap-(Arg-Nal-Arg-Phe-Arg-Arg-Dap)]-Lys) [peptide 44 (Table 18)]; True
5. Trimesoyl-[D‑4‑Phe][Phe(4-F)][dI][Pip′][2Nal]RA[dF][Dap]F[2Nal]RRRR[Dap]K (linker (positions not given here) via Trimesoyl; not fully specified (C-terminus, bridges); printed as bicyclo[Tm-(D-4-Phe-Fpa-D-Ile-Pip-Nal-Arg-Ala-D-Phe)-Dap-(Phe-Nal-Arg-Arg-Arg-Arg-Dap)]-Lys; reading uncertain) [peptide 39 (Table 18)]; True

Prompt: Would you kindly verify if Kd of Trimesoyl-[dF][Phe(3,4-F2)][dT][Pip′][2Nal]RA[dF][Dap]F[2Nal]RRRR[Dap]K (linker (positions not given here) via Trimesoyl; not fully specified (C-terminus, bridges); printed as bicyclo[Tm-(D-Phe-3,4-diFPhe-D-Thr-Pip-Nal-Arg-Ala-D-Phe)-Dap-(Phe-Nal-Arg-Arg-Arg-Arg-Dap)]-Lys) [peptide 29 (Table 18)] is strictly less than 500 nM?
Response: True

Prompt: Hello, is Kd of the following binder strictly smaller than 500 nM? Trimesoyl-[dF][Phe(4-F)][dT][Pip′][2Nal]RA[dF][Dap]RRRR[2Nal]F[Dap]K (linker (positions not given here) via Trimesoyl; not fully specified (C-terminus, bridges); printed as bicyclo[Tm-(D-Phe-Fpa-D-Thr-Pip-Nal-Arg-Ala-D-Phe)-Dap-(Arg-Arg-Arg-Arg-Nal-Phe-Dap)]-Lys) [peptide 42 (Table 18)]
Response: False

Prompt: Please state whether Kd is below 500 nM for Trimesoyl-P[Sar][dD][Pip′][2Nal]RR[dF][Dap]F[2Nal]RRRR[Dap]K-NH2 (linker (positions not given here) via Trimesoyl; not fully specified (some residues, bridges); printed as bicyclo[Tm-(Pro-Sar-D-Asp-Pip-Nal-Arg-Arg-D-Phe)-Dap-(Phe-Nal-Arg-Arg-Arg-Arg-Dap)]-Lys) [peptide 22 (Table 18)]
Response: True

Prompt: Identify whether the binder Trimesoyl-P[Sar][dD][Pip′][2Nal]RR[dV][Dap]F[2Nal]RRRR[Dap]K-NH2 (linker (positions not given here) via Trimesoyl; not fully specified (some residues, bridges); printed as bicyclo[Tm-(Pro-Sar-D-Asp-Pip-Nal-Arg-Arg-D-Val)-Dap-(Phe-Nal-Arg-Arg-Arg-Arg-Dap)]-Lys) [peptide 23 (Table 18)] records Kd below 500 nM.
Response: False
